Numbers sourced from ChEMBL document CHEMBL4000205.

Listing: selectivity ratio of selected compounds
Assay Name: Selectivity index, ratio of IC50 for human THP1 cells to IC50 for promastigote form of Leishmania major JISH118 infected in human THP1 cells
Type: toxicity, cell-based
Experimental Setup: read-out: Ratio IC50
Quantity Name: selectivity ratio

{"columns": ["Record Smiles", "Measured"],
 "data": [
  ["COc1ccc(O)c(/C=N/NC(=O)c2ccc(-c3nnc(-c4ccccc4OC)o3)cc2)c1", 18.6],
  ["COc1ccccc1-c1nnc(-c2ccc(C(=O)N/N=C/c3cccc(O)c3O)cc2)o1", 72.6],
  ["COc1ccccc1-c1nnc(-c2ccc(C(=O)N/N=C/c3ccccc3F)cc2)o1", 60.4],
  ["COc1ccc(/C=N/NC(=O)c2ccc(-c3nnc(-c4ccccc4OC)o3)cc2)cc1O", 40.6],
  ["COc1ccccc1-c1nnc(-c2ccc(C(=O)N/N=C/c3cccc([N+](=O)[O-])c3)cc2)o1", 1.6],
  ["COc1ccccc1-c1nnc(-c2ccc(C(=O)N/N=C/c3ccc(Cl)cc3Cl)cc2)o1", 15.4],
  ["COc1ccccc1-c1nnc(-c2ccc(C(=O)N/N=C/c3ccccn3)cc2)o1", 7.4],
  ["COc1ccccc1-c1nnc(-c2ccc(C(=O)N/N=C/c3cccnc3)cc2)o1", 3.6],
  ["N=C(N)c1ccc(OCCCCCOc2ccc(C(=N)N)cc2)cc1", 1.1],
  ["COc1ccccc1-c1nnc(-c2ccc(C(=O)N/N=C/c3cc(O)c(O)cc3O)cc2)o1", 5.5],
  ["COc1ccccc1-c1nnc(-c2ccc(C(=O)N/N=C/c3ccc(O)cc3)cc2)o1", 35],
  ["COc1ccccc1-c1nnc(-c2ccc(C(=O)N/N=C/c3cccc(F)c3)cc2)o1", 55.6],
  ["COc1ccccc1-c1nnc(-c2ccc(C(=O)N/N=C/c3cc(O)ccc3O)cc2)o1", 22.4],
  ["COc1ccccc1-c1nnc(-c2ccc(C(=O)N/N=C/c3cccc(O)c3)cc2)o1", 22],
  ["COc1ccccc1-c1nnc(-c2ccc(C(=O)N/N=C/c3ccc([N+](=O)[O-])cc3)cc2)o1", 3.6],
  ["COc1ccccc1-c1nnc(-c2ccc(C(=O)N/N=C/c3ccccc3[N+](=O)[O-])cc2)o1", 2.5],
  ["COc1ccc(/C=N/NC(=O)c2ccc(-c3nnc(-c4ccccc4OC)o3)cc2)c(O)c1", 46.6],
  ["COc1ccccc1-c1nnc(-c2ccc(C(=O)N/N=C/c3ccccc3O)cc2)o1", 50],
  ["COc1ccccc1-c1nnc(-c2ccc(C(=O)N/N=C/c3ccncc3)cc2)o1", 4.5],
  ["COc1ccccc1-c1nnc(-c2ccc(C(=O)N/N=C/c3ccc(O)cc3O)cc2)o1", 27.5],
  ["COc1ccccc1-c1nnc(-c2ccc(C(=O)N/N=C/c3ccc(O)c(O)c3)cc2)o1", 105],
  ["COc1ccccc1-c1nnc(-c2ccc(C(=O)N/N=C/c3c(O)cc(O)cc3O)cc2)o1", 2.6],
  ["COc1ccccc1-c1nnc(-c2ccc(C(=O)N/N=C/c3ccc(F)cc3)cc2)o1", 30.1]
]}
